Below, each entry is listed with its recorded pEC50.
# SYSTEM_NAME: Gs (Homo sapiens, UniProt P63092)
# Sequence (P63092 whole entry): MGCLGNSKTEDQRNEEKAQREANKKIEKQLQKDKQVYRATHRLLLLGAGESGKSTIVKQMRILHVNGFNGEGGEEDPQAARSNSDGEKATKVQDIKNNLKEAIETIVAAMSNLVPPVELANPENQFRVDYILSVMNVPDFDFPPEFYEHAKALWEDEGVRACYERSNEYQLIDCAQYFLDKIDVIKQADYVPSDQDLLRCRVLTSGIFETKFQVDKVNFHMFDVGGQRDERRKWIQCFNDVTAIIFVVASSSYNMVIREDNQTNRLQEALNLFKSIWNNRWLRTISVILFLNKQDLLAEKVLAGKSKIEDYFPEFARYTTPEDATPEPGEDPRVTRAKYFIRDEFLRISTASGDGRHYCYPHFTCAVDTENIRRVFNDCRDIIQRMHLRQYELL
# TEST_DESCRIPTION: steady state GTPase activity of Gs
# Assay type: biochemical
# MEASUREMENT_CONDITIONS: Table VI, receptor-based peptides; read-out: Gs af. (apparent affinity, estimated by EC50 of GTPase activity)
pEC50: −log10 of the molar value. Where no end group is shown, it is not given here.

substance="CVYREAKEQIRKIL-NH2 [ER19]" system_name="Gs (Homo sapiens, UniProt P63092)" result="< 4.00"
substance="IVYREAKEQIRKIL-NH2 [ER23]" system_name="Gs (Homo sapiens, UniProt P63092)" result="4.00 to 4.52"
substance="CVYREAKEQIRKIDRVL-NH2 [ER18]" system_name="Gs (Homo sapiens, UniProt P63092)" result="< 4.00"
substance="REHKALKTLGIIC-NH2 [ER40]" system_name="Gs (Homo sapiens, UniProt P63092)" result="4.00 to 4.52"
substance="CVYIVAKRTTKNLEAGVMKEIL-NH2 [ER34]" system_name="Gs (Homo sapiens, UniProt P63092)" result="4.00 to 4.52"

Task item: Name the reported pEC50 value associated with the substance CPLSYRAKRTPRRAALM-NH2 [ER38]
Reply: 4.00 to 4.52

Task item: Name the reported pEC50 value associated with the substance CIYRETENRARELAALQGSET-NH2 [ER32]
Reply: < 4.00

Task item: Name the reported pEC50 value associated with the substance CVYVVAKRESRGLKIL-NH2 [ER47]
Reply: < 4.00

Task item: Name the reported pEC50 value associated with the substance CIYRETENRARELAALQGSETIL-NH2 [ER33]
Reply: < 4.00

Task item: Name the reported pEC50 value associated with the substance CVFQVAKRQLQKIDKVL-NH2 [ER36]
Reply: 4.00 to 4.52

Task item: Name the reported pEC50 value associated with the substance CISRASKSRIKKDKKEPVAIL-NH2 [ER44]
Reply: 4.00 to 4.52

Task item: Name the reported pEC50 value associated with the substance CVYIVAKRTTKNLEIL-NH2 [ER35]
Reply: < 4.00

Task item: Name the reported pEC50 value associated with the substance CVYREAKEQIRKIDR-NH2 [ER43]
Reply: < 4.00

Task item: Name the reported pEC50 value associated with the substance CISRASKSRIKKDKKIL-NH2 [ER45]
Reply: 5.00 to 5.52

Task item: Name the reported pEC50 value associated with the substance CVYVVAKRESRGLKSGLKTDIL-NH2 [ER46]
Reply: < 4.00

Task item: Name the reported pEC50 value associated with the substance IVYREAKEQIRKIDRVL-NH2 [ER22]
Reply: 4.00 to 4.52

---

Below, each entry is listed with its recorded Turnover number Gi 10 μg/ml.
# System: Gi
# TEST_DESCRIPTION: steady state GTPase activity of Gi in phospholipid vesicles;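 also: Steady-state GTP hydrolysis by Gi measured in a detergent-free buffer containing 1.1 mM MgSO4 plus the specified guanine nucleotide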
# Format: biochemical, rabbit
# MEASUREMENT_CONDITIONS: 10 μg/ml amine; 30 min at 30° C.
Answer with the figure and its unit, nothing else.

molecule="CCCCCCCCCCCCCC[N+](C)(C)Cc1ccccc1.[Cl-] [BAC (C14), reference compound]" endpoint_name="Turnover number Gi 10 μg/ml" result="0.04 min⁻¹"

Task item: Name the reported Turnover number Gi 10 μg/ml value associated with the molecule CCCCCCCCCCCCC[N+](C)(C)Cc1ccccc1 [BAC (C-12), benzalkonium chloride]
Reply: 0.08 min⁻¹

Task item: Name the reported Turnover number Gi 10 μg/ml value associated with the molecule CCCC[N+](CCCC)(CCCC)Cc1ccccc1.[Cl-] [BzBu3 NCl, reference compound]
Reply: 0.04 min⁻¹
